FYI, the data here is from patent US20260042764A1.

Assign IC50 to each entry below.
# study_target: Avi-KRAS WT (1-169) GppNHp/RAF1 RBD-3xFLAG (52-151) (Homo sapiens, UniProt P01116)
# Construct: Avi-KRAS WT (1-169)
# Sequence (P01116 1-169 isoform P01116-2): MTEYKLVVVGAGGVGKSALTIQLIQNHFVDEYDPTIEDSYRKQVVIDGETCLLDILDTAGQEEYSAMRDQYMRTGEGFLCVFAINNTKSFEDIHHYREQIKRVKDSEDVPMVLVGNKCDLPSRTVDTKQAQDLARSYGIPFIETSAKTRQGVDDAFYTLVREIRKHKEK
# assay_notes: Raf1-KRAS WT-GppNHP disruption HTRF assay (Biological Example 1)
# Format: binding
# test_context: KRAS WT, GppNHp-loaded; class symbols

Task: Looking for the measured IC50 of CCN(c1nc(OC[C@@]23CCCN2C[C@H](F)C3)nc2c(F)c(-c3ccc(F)c4sc(N)c(C#N)c34)c(C(F)(F)F)cc12)[C@H]1C[C@@H](C)N(C(=O)[C@H](C)OC)C1 (atropisomer, axis not shown) , can you help?
Result: 100 to 1000 nM

Task: // IC50 lookup, key: COC(=O)N1CC[C@H]2[C@@H]1CN2c1nc(OC[C@@]23CCCN2C[C@H](F)C3)nc2c(F)c(-c3ccc(F)c4sc(N)c(C#N)c34)c(C(F)(F)F)cc12 (atropisomer, axis not shown)
Result: 1000 to 10000 nM

###

Provide the recorded IC50 for the entries that follow.
# study_target: Avi-KRAS G12D (1-169) GppNHp/RAF1 RBD-3xFLAG (52-151) (Homo sapiens, UniProt P01116, G12D)
# Construct: Avi-KRAS G12D (1-169)
# Sequence (P01116 1-169 isoform P01116-2 G12D): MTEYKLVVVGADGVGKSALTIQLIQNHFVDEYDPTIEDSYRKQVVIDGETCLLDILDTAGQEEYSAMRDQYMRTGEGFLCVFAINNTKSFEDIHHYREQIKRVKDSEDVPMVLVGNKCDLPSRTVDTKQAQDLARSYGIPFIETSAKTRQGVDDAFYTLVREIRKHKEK
# assay_notes: Raf1-KRAS G12D-GppNHP disruption HTRF assay (Biological Example 1)
# Format: binding
# test_context: KRAS G12D, GppNHp-loaded; Table 11

Task: Dear colleague, I am looking for the recorded IC50 of the following compound: CC(=O)N1CC[C@H](N(C)c2nc(OC[C@@H]3CCCN3C)nc3c(F)c(-c4ccc(F)c5sc(N)c(C#N)c45)c(C(F)(F)F)cc23)[C@@H]1C
Result: > 10 µM

Task: I'd like to know its IC50. The compound in question is CN(CCCO)c1nc(OC[C@@]23CCCN2C[C@H](F)C3)nc2c(F)c(-c3ccc(F)c4sc(N)c(C#N)c34)c(C(F)(F)F)cc12
Result: 0.1 to 1 µM

Task: Look up IC50 for this compound: CN(C)C(=O)c1cc2n(n1)CCCN(c1nc(OC[C@@]34CCCN3C[C@H](F)C4)nc3c(F)c(-c4ccc(F)c5sc(N)c(C#N)c45)c(C(F)(F)F)cc13)C2
Result: < 0.1 µM

Task: For the compound C[C@@H](O)C1CCN(c2nc(OC[C@@]34CCCN3C[C@H](F)C4)nc3c(F)c(-c4ccc(F)c5sc(N)c(C#N)c45)c(C(F)(F)F)cc23)CC1 , what IC50 is on record?
Result: < 0.1 µM

Task: So what's the measured IC50 for this one? Nc1nc2c(-c3c(C(F)(F)F)cc4c(N5CCC(CO)CC5)nc(OCC56CCCN5CCC6)nc4c3F)ccc(F)c2s1
Result: 0.1 to 1 µM

Task: Field request: IC50 | item: CN(CC(F)F)c1nc(OC[C@@]23CCCN2C[C@H](F)C3)nc2c(F)c(-c3ccc(F)c4sc(N)c(C#N)c34)c(C(F)(F)F)cc12
Result: 0.1 to 1 µM

###

# study_target: Avi-KRAS G12D (1-169) GppNHp/RAF1 RBD-3xFLAG (52-151) (Homo sapiens, UniProt P01116, G12D)
# Construct: Avi-KRAS G12D (1-169)
# assay_notes: Raf1-KRAS G12D-GppNHP disruption HTRF assay (Biological Example 1)
# Assay type: binding
# test_context: KRAS G12D-GppNHp/RAF1 RBD HTRF
Field: IC50. Provide a value for each of the molecules that follow.

Task: I am curious: what IC50 value has been reported for COC1C2CN(c3nc(OC[C@@]45CCCN4C[C@H](F)C5)nc4c(F)c(-c5ccc(F)c6sc(N)c(C#N)c56)c(C(F)(F)F)cc34)C1CO2 (some centres unmarked) ?
Result: 0.1 to 1 µM

Task: Dear colleague, I am looking for the recorded IC50 of the following molecule: CCN(c1nc(OC[C@@]23CCCN2C[C@H](F)C3)nc2c(F)c(-c3ccc(F)c4sc(N)c(C#N)c34)c(C(F)(F)F)cc12)[C@H]1C[C@@H](C)N(C(=O)OC)C1 (atropisomer, axis not shown)
Result: < 0.1 µM

Task: State the recorded IC50 for this entry: CN(Cc1cccnc1N)c1nc(OC[C@@]23CCCN2C[C@H](F)C3)nc2c(F)c(-c3ccc(F)c4sc(N)c(C#N)c34)c(C(F)(F)F)cc12
Result: 0.1 to 1 µM

Task: Item under review: CN(c1nc(OC[C@@]23CCCN2C[C@H](F)C3)nc2c(F)c(-c3ccc(F)c4sc(N)c(C#N)c34)c(C(F)(F)F)cc12)C1CCS(=O)(=O)CC1 . Reported IC50?
Result: 0.1 to 1 µM

Task: // lookup IC50 for N#Cc1c(N)sc2c(F)ccc(-c3c(C(F)(F)F)cc4c(N5CCN6C(=O)OCC6C5)nc(OCC56CCCN5CC(F)C6)nc4c3F)c12 (centres unmarked) [Compound 428]
Result: 1 to 10 µM
